This section presents variants with their documented response (OmpC adjusted) values.
B1: FtsX(His&Myc) [E. coli K-12] / FtsE(Flag) [E. coli K-12] (parent)
chain 1: MIRFEHVSKAYLGGRQALQGVTFHMQPGEMAFLTGHSGAGKSTLLKLICGIERPSAGKIWFSGHDITRLKNREVPFLRRQIGMIFQDHHLLMDRTVYDNVAIPLIIAGASGDDIRRRVSAALDKVGLLDKAKNFPIQLSGGEQQRVGIARAVVNKPAVLLADEPTGNLDDALSEGILRLFEEFNRVGVTVLMATHDINLISRRSYRMLTLSDGHLHGGVGHE
chain 2: MNKRDAINHIRQFGGRLDRFRKSVGGSGDGGRNAPKRAKSSPKPVNRKTNVFNEQVRYAFHGALQDLKSKPFATFLTVMVIAISLTLPSVCYMVYKNVNQAATQYYPSPQITVYLQKTLDDDAAAGVVAQLQAEQGVEKVNYLSREDALGEFRNWSGFGGALDMLEENPLPAVAVVIPKLDFQGTESLNTLRDRITQINGIDEVRMDDSWFARLAALTGLVGRVSAMIGVLMVAAVFLVIGNSVRLSIFARRDSINVQKLIGATDGFILRPFLYGGALLGFSGALLSLILSEILVLRLSSAVAEVAQVFGTKFDINGLSFDECLLLLLVCSMIGWVAAWLATVQHLRHFTPE

- Variants of: B1
- ASSAY TEXT: western blot of membrane fraction, quantified (FtsE retained on membrane with FtsX)
- CONDITION INFO: with FtsE(Flag) [E. coli K-12]; parent: 1.3; read off a plot
ENDPOINT: response (OmpC adjusted)

INSERT INTO measurements (var, observed_measurement) VALUES
  ('chain 2 I261D', 0.11),
  ('chain 2 F267A', 0.5),
  ('chain 2 V257P', 0.38),
  ('chain 2 T264K', 0.51);
